# ASSAY DETAILS: yeast display, Sf9 membrane polyspecificity reagent, FACS + sequencing; frameworks hold sequencing errors
OBSERVABLE: polyreactivity (PSR sort gate)

Solved cases (4 shown):
SEQ STRING: QVQLVESGGGLVQAGGSLRLSCAASGSTFTVYAMGWYRQAPGKERELVAGISSGGSTYYADSVKGRFTISRDNAKNTVYLQMNSLKPEDTAVYYCAALRVRVPLGTYGYWGQVTQVTVSS
OBSERVABLE: polyreactivity (PSR sort gate)
MEASURED: high polyreactivity
//
SEQ STRING: QDQLVESGGGLVQAGGSLRLSCAASGSIFRYYDMGWSRQAPGKERELVAAISDSTGTTYYADSVKGRFTISRDNAKNTVYLQMNSLKPEDTAVYYCNTAYNRYWRPFNSLYYWGQGTQVTVSS
OBSERVABLE: polyreactivity (PSR sort gate)
MEASURED: high polyreactivity
//
SEQ STRING: QVQLVESGGGLVQAGGSLRLSCDASGSTFPKYAMGWYRQAPGKEWELVASISARGGGTHYADSVKGRFTISRDNAKNTVYLQMNSLKPEDTAVYYCNDVAHRQAQGAWGPGTQVTVSS
OBSERVABLE: polyreactivity (PSR sort gate)
MEASURED: low polyreactivity
//
SEQ STRING: QVQLVESGGGLVQAGGSLRLICAASGVTFWSDAMGWYRQAPGKEREFVAAITTSAGRTNYADSVKGRFTISRDNAQNTVYLKMNSLKPEDTAVYYCAARSAYTGLGSGFDYWGQGTQVSVSS
OBSERVABLE: polyreactivity (PSR sort gate)
MEASURED: low polyreactivity

Exercise: Which polyreactivity (PSR sort gate) is listed for QVQLVESAGVLVQAGGRLRLICAACGSIFDYYSLGWYRQAPGKEREMVDTISGGGGTTYYADSVKGRFTISRDNAKNSVYVHMNSLKPEDTAVYYCAADSLGYKYWGQGTQVTVSS ?
Key: low polyreactivity

Exercise: # iterate: QVQLVESGGGLVQAGGSLRLSCAASGSTFTTNAMGWYSQAPGKERELVATISGGGSTYYADSVKGRFTISRDNAKNTVYLQMNSLKPEDTAVYYCATDVQVPGIGRSVYAYEYWGQGTQVTVSS
Key: low polyreactivity

Exercise: # iterate: QVQLQESGSGLVQAGGSLRLSCAASGAIFPAYLMGWYRQAPGKERELVAGISYGSITYCADSVKGRFNISRDNAKNTVYLQMNSLKPEDTAVYYCAVWRPGVDEYYYWGQGTQVTVSS
Key: low polyreactivity

Exercise: # iterate: QVQLVESGGGLVQAGGSLRLSCAASGRTLDIYTMGWYRQAPGKERELVAAISWSGGSTYYADSVKGRFTISRDNAKNTVYLQMNSLKPEDTAVYYCNRVPISYAGQLEHSLYDFWGQGTQVTVSS
Key: low polyreactivity

Exercise: # iterate: QVQLVESGGGLVQAGGSLRLSCAASGFIFWSNARGWYRQAPGQDRELVAAINSSGGRTDYADSVKGRFTNSRDNAKNTDYLHMNSLKPEDTAVYYCAARLHSPPYRYDYWGQGTQVTVSS
Key: high polyreactivity

====

# ASSAY DETAILS: yeast display, Sf9 membrane polyspecificity reagent, FACS + sequencing; frameworks hold sequencing errors
OBSERVABLE: polyreactivity (PSR sort gate)

Solved cases (6 shown):
SEQ STRING: QVQLVESGGGLVQAGGSLRLSCAASGRIFRRYAMGWYRQAPGKEREFVAAITKSGGSTYYADSVKGRFTISRDNAKNTVYLQMNSLKPEDTAVYYCATYPQYYFGYDYWGQGTQVTVSS
polyreactivity (PSR sort gate): high polyreactivity
--
SEQ STRING: QVQLVESGGGLVQGGGSLRLSCAASGFIFDGNAMGWSRQAPGKEREFVASNSGSGDSTYYADSVKGRFTISRDNAKNTVYLQMNSLKPEDTAVYYCAYEGTPWASGNDYWGQGTQVTVSS
polyreactivity (PSR sort gate): low polyreactivity
--
SEQ STRING: QVQLVESGGGLVQAGGSLRLSSAASGSSFYRYAMGSYRQAPGKERELVATITRSGGSTYYADSVKGRFTISRDNAKNTVYLQMNSLKPEDTAVYYCAARGWYKSDYWGQGTQVTVSS
polyreactivity (PSR sort gate): low polyreactivity
--
SEQ STRING: QVQLVESGGGLVQAGGSLRLSCDASGFILYYNAMGWYRQAPGKEREMVAAITSGGGGTYYADSVKGRFTNSRDNAKNTVYFQMNSLNPEDTAVYYCNTRFGYRGGVDFDYWGQGTQVTVSS
polyreactivity (PSR sort gate): high polyreactivity
--
SEQ STRING: QVQLVESGGGLVQAGGSLRLSCAASGLTFAFNAMGWYRPAPGKERELVAAISKSGGSTYYADSVKGRFTISRDNAKNTVYLQMNSLKPEDTAVYYCAAGFWYYSYPTLYEYGYWGQGTQVTVSS
polyreactivity (PSR sort gate): low polyreactivity
--
SEQ STRING: QVQLVESGGGLVQAGGSLRLSCAASGSTFDYNAMGWYRQAPGKERELVAAISSGGRTYYADSVKGRFTISRDNAKNTVYLQMNSLKPEDTAVYYCAKARTLRYDSWGQGTQVTVSS
polyreactivity (PSR sort gate): low polyreactivity

Exercise: Which polyreactivity (PSR sort gate) is listed for QVQLVESGGGLVQAGGSLRLSCAASGFTFKYYAMGWYRQAPGKERELVASISWDGTRTYYADSVKGRFTISRDNAKNTVYLQMNSLKPEDTAVYDGAAVFLDYRTYSYGYWGQGTQVTVSS ?
Key: high polyreactivity

Exercise: # iterate: HVQLVESGGGLVQAGGSLRLSCAASGRTFRLYAMGRYRQATGKEMELVARIRWRGGTTYFADSVKGRFTISRDNAKNTVYLQMNRLKPEDTAVYYCAARAYPTWRTYYYCGQGTQVTVSS
Key: high polyreactivity

Exercise: # iterate: QVQLVESGGGLVQAGGSLRLSCAASGSTFYAYAMGWYRQAPGKERELVAAITSRGGSTYYADSVKGRFTISRDNAKYTVYLELISLKPEDTAVYYCDARTCWWSRYYGSWGQGTQVTVSS
Key: high polyreactivity

Exercise: # iterate: QVQLVESGGGLVQAGGSLRLSCAASGRIFTNNAMGWYRPAPGKERELVAAISRSGGRTYYADSVKGRFTISRDNAKNTVYLQMNSLKPEDTAVYYCAAVHLYYGYNSPFTMDYWGQGTQVTVSS
Key: high polyreactivity

Exercise: # iterate: QVQLVESGGGLVQAGGSLRLSCAASGSTFNPYAMGWYRQAPGKERELLAAITWSSDDTYYADSVKGRFTISRDNAKNTVYLQMNSLKPEDTAVYYCAADVIGDLRWYGDEYWGQGTQVTESS
Key: low polyreactivity

Measured values drawn from the nanobody polyreactivity screen of Harvey et al. (2022) for this set.
